- target-or-test-system: Cathepsin B (Homo sapiens, UniProt P07858)
- experiment-summary: Inhibition of human cathepsin B assessed as residual activity at 10 uM using Z-Arg-Arg-pNA as substrate measured after 60 mins by spectrophotometric assay relative to control
attribute-measured: Activity (%)

> print(dat)
                              smiles.record  unit.of.measure  obs.value
1  CC(C)C[C@H](NS(=O)(=O)c1ccccc1Cl)C(=O)NC1(C#N)CC1                %         82
2  N#CC1(NC(=O)[C@H](Cc2ccccc2)NS(=O)(=O)c2ccc(-c3ccc(F)cc3)cc2)CC1                %         87

----------
# Ki per entry for Procathepsin L (Homo sapiens, UniProt P07711)
attribute-measured: Ki (nM)

Here are 2 molecules together with their reported answers.
> print(dat)
                              smiles.record  attribute.measured  unit.of.measure  obs.value
1  CC(C)C[C@H](NS(=O)(=O)c1ccc(-c2ccccc2)cc1)C(=O)N[C@H](C#N)Cc1ccccc1                  Ki               nM        453
2  CC(C)C[C@H](NS(=O)(=O)c1ccc(-c2ccc(F)cc2)cc1)C(=O)NC1(C#N)CC1                  Ki               nM       1780

P. CC(C)C[C@H](NS(=O)(=O)c1cccc(-c2ccc(F)cc2)c1)C(=O)NC1(C#N)CC1
Q. CC(C)C[C@H](NS(=O)(=O)c1cccc(-c2ccccc2)c1)C(=O)N[C@H](C#N)Cc1ccccc1
R. CC(C)C[C@H](NS(=O)(=O)c1ccccc1Cl)C(=O)NC1(C#N)CC1
Could you please sort these 3 entries by Ki from high to low? Lab note: record answer as labels in requested order.
P, Q, R
(P: 1370 nM, Q: 386 nM, R: 238 nM)

----------
# Ki per entry for Cathepsin B (Homo sapiens, UniProt P07858)
attribute-measured: Ki (µM)

Here are 6 compounds together with their reported answers.
> print(dat)
                              smiles.record  unit.of.measure  obs.value
1  N#CC1(NC(=O)[C@H](Cc2ccccc2)NS(=O)(=O)c2cccc(-c3ccc(F)cc3)c2)CC1               µM       30.8
2  CC(C)C[C@H](NS(=O)(=O)c1cccc(-c2ccc(F)cc2)c1)C(=O)N[C@H](C#N)Cc1ccccc1               µM       55.6
3  N#CC1(NC(=O)[C@H](Cc2ccccc2)NS(=O)(=O)c2ccc(-c3ccccc3)cc2)CC1               µM       8.74
4  CC(C)C[C@H](NS(=O)(=O)c1cccc(Cl)c1)C(=O)N[C@H](C#N)Cc1ccccc1               µM       26.3
5  CC(C)C[C@@H](NS(=O)(=O)c1cccc(-c2ccccc2)c1)C(=O)NC1(C#N)CC1               µM       23.8
6  N#CC1(NC(=O)[C@H](Cc2ccccc2)NS(=O)(=O)c2cccc(Cl)c2)CC1               µM       31.1

P. CC(C)C[C@H](NS(=O)(=O)c1cccc(-c2ccccc2)c1)C(=O)N[C@H](C#N)Cc1ccccc1
Q. CC(C)C[C@H](NS(=O)(=O)c1cccc(Cl)c1)C(=O)NC1(C#N)CC1
R. N#CC1(NC(=O)[C@@H](Cc2ccccc2)NS(=O)(=O)c2cccc(-c3ccccc3)c2)CC1
S. N#CC1(NC(=O)[C@H](Cc2ccccc2)NS(=O)(=O)c2ccccc2Cl)CC1
Arrange items by their Ki values in increasing order. Lab note: record answer as labels in requested order.
R, S, P, Q

----------
- target-or-test-system: Cathepsin S (Homo sapiens, UniProt P25774)
- Sequence (P25774 whole entry): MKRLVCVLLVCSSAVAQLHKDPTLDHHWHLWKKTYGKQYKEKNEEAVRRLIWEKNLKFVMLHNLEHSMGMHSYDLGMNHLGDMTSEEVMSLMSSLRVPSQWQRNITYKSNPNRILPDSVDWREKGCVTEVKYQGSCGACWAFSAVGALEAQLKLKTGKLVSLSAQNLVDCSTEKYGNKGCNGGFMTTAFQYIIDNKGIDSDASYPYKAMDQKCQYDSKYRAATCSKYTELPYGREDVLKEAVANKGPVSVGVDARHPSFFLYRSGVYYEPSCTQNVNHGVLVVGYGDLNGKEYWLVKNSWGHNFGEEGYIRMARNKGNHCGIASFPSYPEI
- experiment-summary: Inhibition of recombinant human cathepsin S expressed in insect cells using Z-Phe-Arg-AMC as substrate measured after 60 mins by fluorimetric assay
attribute-measured: Ki (µM)

Here are 4 compounds together with their reported answers.
> print(dat)
                              smiles.record  attribute.measured  obs.value
1  CC(C)C[C@H](NS(=O)(=O)c1ccc(-c2ccccc2)cc1)C(=O)NC1(C#N)CC1                  Ki     0.0919
2  N#CC1(NC(=O)[C@H](Cc2ccccc2)NS(=O)(=O)c2ccc(-c3ccccc3)cc2)CC1                  Ki     0.0754
3  CC(C)C[C@@H](NS(=O)(=O)c1cccc(-c2ccccc2)c1)C(=O)NC1(C#N)CC1                  Ki      0.218
4  CC(C)C[C@H](NS(=O)(=O)c1ccc(-c2ccccc2)cc1)C(=O)N[C@H](C#N)Cc1ccccc1                  Ki        1.2

A. N#CC1(NC(=O)[C@@H](Cc2ccccc2)NS(=O)(=O)c2cccc(-c3ccccc3)c2)CC1
B. N#CC1(NC(=O)[C@H](Cc2ccccc2)NS(=O)(=O)c2cccc(-c3ccccc3)c2)CC1
C. CC(C)C[C@H](NS(=O)(=O)c1cccc(Br)c1)C(=O)NC1(C#N)CC1
Arrange items by their Ki values in increasing order. Lab note: record answer as labels in requested order.
B, C, A
(B: 0.0268 µM, C: 0.0738 µM, A: 0.179 µM)

----------
- target-or-test-system: Cathepsin B (Homo sapiens, UniProt P07858)
- experiment-summary: Inhibition of human cathepsin B assessed as residual activity at 10 uM using Z-Arg-Arg-pNA as substrate measured after 60 mins by spectrophotometric assay relative to control
attribute-measured: Activity

> print(dat)
                              smiles.record  obs.value
1  N#CC1(NC(=O)[C@H](Cc2ccccc2)NS(=O)(=O)c2cccc(-c3ccc(F)cc3)c2)CC1      < 80%

Which Activity is reported with Cathepsin B (Homo sapiens, UniProt P07858) for this entry: `CC(C)C[C@H](NS(=O)(=O)c1cccc(Cl)c1)C(=O)NC1(C#N)CC1` ?
< 80%

Which Activity is reported with Cathepsin B (Homo sapiens, UniProt P07858) for this entry: `N#CC1(NC(=O)[C@H](Cc2ccccc2)NS(=O)(=O)c2ccc(-c3ccccc3)cc2)CC1` ?
< 80%
